# Test system: CSF1R-autoinhibited;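 also: KINOMEscan kinase panel screen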
# ASSAY_CONDITIONS: concentration: 1 μM, replicates: in singlicate; n = 1
Mark TRUE for %Inh under 6%, FALSE if at or over.

COMPOUND	SYSTEM_NAME	CATEGORY_LABEL
Cl.Cn1ccc(-c2cccc(Nc3ccnc4cc(-c5nccs5)ccc34)c2)n1 [GW525701]	CSF1R-autoinhibited	FALSE
Nc1n[nH]c2nnc(-c3ccccc3)cc12 [SB-517389]	CSF1R-autoinhibited	TRUE
CCc1nc(-c2cccc(N(C)S(=O)(=O)c3ccccc3)c2)c(-c2ccnc(Nc3ccc(N4CCN(C(C)=O)CC4)nc3)n2)s1 [GSK1645895]	CSF1R-autoinhibited	TRUE
CCC(CC)(CC)n1cnc2c(N)ncnc21 [SKF-97620]	CSF1R-autoinhibited	FALSE
CN1c2ccc(-c3ccc(C(=O)NCCO)cc3)cc2-c2[nH]ncc2S1(=O)=O	CSF1R-autoinhibited	FALSE
CC(=O)Nc1n[nH]c2ncc(-c3ccccc3)cc12 [SB-548492]	CSF1R-autoinhibited	TRUE

Answer whether the compound C[C@@H]1CCN(C(=O)CO)C[C@@H]1N(C)c1ncnc2[nH]ccc12 has %Inh strictly less than 6% FALSE

Quick check: %Inh of O=C(c1ccc(-c2cc(-c3c[nH]nc3-c3ccccn3)ccn2)cc1)N1CCCC1 [GW792479] under 6%? TRUE

%Inh under 6%? Item: Nc1nc(-c2cccnc2)c(-c2ccnc3ccccc23)s1 [GW684083] TRUE

Just wondering, is %Inh of Nc1nc(-c2ccc3c(N)n[nH]c3c2)cc(N2CCCCC2)n1 [GSK2228768] below 6%? TRUE

Could you please tell me whether %Inh recorded for Cn1cc(-c2ccc3c(c2)CCN3C(=O)Cc2cccc(C(F)(F)F)c2)c2c(N)ncnc21 [GSK2606414] is less than 6%? TRUE

Bench note: check whether Fc1ccc(Nc2nccc(-c3c(-c4ccc(Cl)cc4)nn4ncccc34)n2)cc1F [GW829058] shows %Inh below 6% TRUE

Report whether reported %Inh is lower than 6% (strictly) for Fc1cccc(COc2ccc(Nc3ncnc4cc[nH]c34)cc2Cl)c1 TRUE

Is %Inh of O=C(Nc1ccccc1F)NC1CCN(c2ccnc(Nc3ccc(F)cc3)n2)C1 (stereo not shown) [GSK1379722] strictly below 6%? FALSE

Record C[C@H]1CC[C@@H](C(=O)Nc2ccccc2)CN1c1cc(-c2ccc3c(N)n[nH]c3c2)nc(N)n1 [GSK2283293] : is its %Inh strictly below 6%? FALSE

In the record for Clc1cccc(-c2nc(Nc3ccncc3)c3ccccc3n2)c1 [GW873004] , is %Inh less than 6%? TRUE

Strictly below 6% in %Inh? O=C(CCO)NCCn1ccc2ncnc(Nc3ccc(Oc4cccc(C(F)(F)F)c4)c(Cl)c3)c21 TRUE

Record Cc1ccc(C)c(NC(=O)NCCNc2ccnc(Nc3ccc(F)cc3)n2)c1 [GSK1379878] : is its %Inh strictly below 6%? FALSE

Given CCc1nc(-c2cccc(C)c2)c(-c2ccnc(NC(=O)c3ccccc3)c2)s1 , is recorded %Inh strictly lower than 6%? FALSE

Consider CC(C)(C)OC(=O)NC1CCCN(c2cc(-c3ccc4c(N)n[nH]c4c3)nc(N)n2)C1 (stereo not shown) [GSK2286096] . Does its %Inh lie strictly below 6%? TRUE

Does the reported %Inh of O=C(NCCCN1CCCC1=O)c1cnc(NCc2cc(Cl)ccc2Cl)nc1NC1CCNCC1 stay below 6%? TRUE
